tested on: SF-268; assay: NCI tumour cell line growth inhibition, 48 h
Calls of active or inactive are those of the source. Cut-off read from the data, not from the text of the source: active = GI50 up to about 1.1 µM and inactive = higher.
Hi! Could you answer with just one of these? active, inactive

Please share the test call associated with "CSC(SC)(C(=O)O)c1cc(-c2c(Cl)cccc2Cl)no1" .
inactive

Check the results log: what was the call for "Oc1ccc2ccccc2c1/C=N/Cc1c(O)ccc2ccccc12" ?
inactive

Please let me know the test result on file for "COC1=CC(=O)c2c(c(-c3csc(C)n3)cn2C)C1=O" .
inactive

For this molecule, state the assay outcome: "COc1ccc(/C(Cl)=C(\CNc2ccccn2)c2ccccc2)cc1OC"
inactive

What did this assay record as the result for "O=C(CCc1ccc(O)c(O)c1)NCCc1ccccc1" ?
inactive

Alright, here's another molecule for you.
Kindly provide the recorded test outcome for the following molecule: "CNC(=O)OCc1c2ccncc2c(C)c2c1[nH]c1ccccc12"
active
